biological target: water-insoluble glucan producing enzyme (Streptococcus downei, UniProt P27470); construct: endogenous in cells; host or cells: Streptococcus mutans 6715 strain (today S. sobrinus), culture supernatant, ammonium sulfate precipitate, dialyzed; test: Effect of saccharides on formation of water-insoluble glucan from sucrose (Experiment 3); type: biochemical, Streptococcus mutans 6715 strain; conditions: 1 ml 4 w/v % sucrose plus 1 ml 4 w/v % saccharide, 0.02 units enzyme, 37° C., 16 hours; sucrose control 300
Sequence (P27470 39-1592): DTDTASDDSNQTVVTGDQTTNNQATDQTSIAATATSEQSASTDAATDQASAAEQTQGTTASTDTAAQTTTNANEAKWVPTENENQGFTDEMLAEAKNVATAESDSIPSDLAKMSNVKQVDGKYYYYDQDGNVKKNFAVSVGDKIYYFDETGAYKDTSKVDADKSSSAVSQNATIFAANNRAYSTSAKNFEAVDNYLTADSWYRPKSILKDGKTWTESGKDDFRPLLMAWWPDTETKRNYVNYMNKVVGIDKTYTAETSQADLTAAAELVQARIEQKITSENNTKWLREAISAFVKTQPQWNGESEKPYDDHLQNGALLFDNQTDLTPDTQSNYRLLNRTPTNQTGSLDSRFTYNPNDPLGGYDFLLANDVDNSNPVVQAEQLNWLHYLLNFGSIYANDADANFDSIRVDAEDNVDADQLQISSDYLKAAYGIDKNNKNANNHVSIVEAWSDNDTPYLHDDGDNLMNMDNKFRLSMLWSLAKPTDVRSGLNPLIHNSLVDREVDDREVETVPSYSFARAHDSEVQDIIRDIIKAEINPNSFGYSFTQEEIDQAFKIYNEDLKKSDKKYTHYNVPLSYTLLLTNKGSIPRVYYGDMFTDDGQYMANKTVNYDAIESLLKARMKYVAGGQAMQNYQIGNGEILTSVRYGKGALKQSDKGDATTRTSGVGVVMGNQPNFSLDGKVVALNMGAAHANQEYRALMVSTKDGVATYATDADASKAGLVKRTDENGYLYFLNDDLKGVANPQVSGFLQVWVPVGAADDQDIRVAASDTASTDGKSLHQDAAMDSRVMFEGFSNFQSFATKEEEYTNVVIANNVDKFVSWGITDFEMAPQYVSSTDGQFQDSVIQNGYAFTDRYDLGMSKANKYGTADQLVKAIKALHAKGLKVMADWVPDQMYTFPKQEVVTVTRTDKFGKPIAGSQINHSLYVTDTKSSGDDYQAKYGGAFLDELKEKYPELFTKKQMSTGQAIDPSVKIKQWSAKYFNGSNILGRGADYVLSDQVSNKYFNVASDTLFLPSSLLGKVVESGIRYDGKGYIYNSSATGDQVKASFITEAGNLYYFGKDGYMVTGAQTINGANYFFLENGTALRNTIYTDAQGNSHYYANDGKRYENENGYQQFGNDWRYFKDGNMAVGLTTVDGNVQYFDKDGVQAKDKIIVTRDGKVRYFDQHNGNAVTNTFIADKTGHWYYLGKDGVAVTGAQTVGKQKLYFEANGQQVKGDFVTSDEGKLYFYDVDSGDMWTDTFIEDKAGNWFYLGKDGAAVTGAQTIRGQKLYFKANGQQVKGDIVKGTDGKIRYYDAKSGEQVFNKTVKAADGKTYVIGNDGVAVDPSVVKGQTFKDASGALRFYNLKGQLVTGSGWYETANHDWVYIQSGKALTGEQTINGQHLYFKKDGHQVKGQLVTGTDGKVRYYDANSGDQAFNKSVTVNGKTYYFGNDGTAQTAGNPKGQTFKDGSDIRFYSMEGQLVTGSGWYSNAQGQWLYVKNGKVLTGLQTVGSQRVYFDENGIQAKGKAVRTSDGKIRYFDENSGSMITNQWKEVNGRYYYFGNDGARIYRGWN
Recorded A: amounts of water-insoluble glucan formed by entry
Measurement Kind: A: amounts of water-insoluble glucan formed (µg/mL)

- OC[C@H]1O[C@H](O[C@H]2[C@H](O)[C@@H](O)[C@@H](O[C@H]3[C@H](O)[C@@H](O)C(O)O[C@@H]3CO)O[C@@H]2CO)[C@H](O)[C@@H](O)[C@@H]1O (stereo partly drawn): 213
- OC[C@H]1O[C@H](OC[C@H]2O[C@H](OC[C@H]3O[C@H](OC[C@H]4OC(O)[C@H](O)[C@@H](O)[C@@H]4O)[C@H](O)[C@@H](O)[C@@H]3O)[C@H](O)[C@@H](O)[C@@H]2O)[C@H](O)[C@@H](O)[C@@H]1O (stereo partly drawn): 18
- O=C(CO)[C@@H](O[C@H]1O[C@H](CO)[C@@H](O)[C@H](O)[C@H]1O)[C@H](O)[C@H](O)CO: 273
